Taken from the RNAGym collection of RNA variant scans (doi:10.7554/elife.90254).

B1: LINE1-full (parent)
chain: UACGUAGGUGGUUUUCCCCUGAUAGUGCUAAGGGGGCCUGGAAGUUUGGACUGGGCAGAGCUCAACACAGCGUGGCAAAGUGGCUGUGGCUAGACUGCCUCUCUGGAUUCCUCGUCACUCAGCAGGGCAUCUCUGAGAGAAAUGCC

# Variants of: B1
# ASSAY PROTOCOL: self-cleavage, relative activity (ratio to wild type); higher = more cleavage; in vitro, sequencing; the parent is a self-cleaving ribozyme
Classification scheme (self-cleavage): bottom bin = under 0.5, middle bin = from 0.5 up to 1, top bin = 1 and over

See these solved cases before continuing.
C116U A129G: middle bin
U52A U81G: top bin
U15A A107G: middle bin
G27U C84A: bottom bin
A67G U115G: top bin

// query Please let me know in which category the item A65U G80A belongs.
// result bottom bin

// query Given A22G U52A , name the class its self-cleavage places it in.
// result top bin
